- assay: In-vitro absorption, Caco-2 A-B permeability
- Assay type: in vitro ADME, human
- condition: human, Caco-2, pH 7.4, Caco-2 A-B; without verapamil; 1.0E−05M; read-out: Permeability 2nd
Structures can show the parent of a compound that is named as a salt. Non-standard residues stand in square brackets, D forms with d. Residues, ends and D or L forms follow the SMILES beside them. Dopa = N[C@@H](Cc1ccc(O)c(O)c1)C(=O)O
Each item that follows carries a reported Papp A→B at 60 min, 10 μM.
Could you give the number and then its unit, please?

Study these solved cases before continuing.
INSERT INTO measurements (compound, test_value) VALUES
  ('NCCCC[C@H](NC(=O)[C@@H](N)Cc1ccc(O)c(O)c1)C(=O)O [LD-Lys TFA salt, Levodopa Lysine TFA Salt] (H-[Dopa]-Lys-OH)', '0.09 ×10⁻⁶ cm/s'),
  ('N[C@@H](Cc1ccc(O)c(O)c1)C(=O)N[C@@H](Cc1ccc(O)cc1)C(=O)O [LD-Tyr TFA salt, Levodopa Tyrosine TFA Salt] (H-[Dopa]-Tyr-OH)', '0.04 ×10⁻⁶ cm/s');

Attention now turns to another entry.
IN: Find the measured Papp A→B at 60 min, 10 μM of N[C@@H](Cc1ccc(O)c(O)c1)C(=O)O [LD (control), L-3,4-dihydroxyphenylalanine, reference compound] and report it.
OUT: 1.25 ×10⁻⁶ cm/s
